system.name: Serine/threonine-protein kinase Chk1 (Homo sapiens);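 also: reported figure is the mean percent inhibition of CHEK1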
cond: at 0.1 µM

{"substance.smiles": "COC(=O)Nc1nc2ccc(Oc3ccc(NC(=O)Nc4cc(C(F)(F)F)ccc4F)cc3)cc2s1", "inhibition (%)": -6.7}
{"substance.smiles": "COc1cc(N2CCN(C(C)C)CC2)ccc1Nc1nc(Nc2cccc(F)c2C(=O)O)c2cc[nH]c2n1", "inhibition (%)": 1.97}
{"substance.smiles": "COc1ccc(-c2nn3ncccc3c2-c2ccnc(Nc3ccc(F)c(F)c3)n2)cc1", "inhibition (%)": 3.76}

---

system.name: Ephrin type-B receptor 2 (Homo sapiens);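 also: reported as mean inhibition of EPHB2, from the GSK PKIS dataset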
cond: at 0.1 µM

{"substance.smiles": "CS(=O)(=O)CCNCc1ccoc1-c1ccc2ncnc(Nc3ccc(OCc4ccccc4)cc3)c2c1", "system.name": "Ephrin type-B receptor 2 (Homo sapiens)", "inhibition [%]": 4.8}
{"substance.smiles": "O=C(O[C@H]1CN[C@H](C#Cc2cc3ncnc(Nc4ccc5c(cnn5Cc5ccccc5)c4)c3s2)C1)N1CCOCC1", "system.name": "Ephrin type-B receptor 2 (Homo sapiens)", "inhibition [%]": -3.66}
{"substance.smiles": "CC(C)c1ccc(-c2cc(-c3c[nH]nc3-c3ccccn3)ccn2)cc1", "system.name": "Ephrin type-B receptor 2 (Homo sapiens)", "inhibition [%]": 7.84}
{"substance.smiles": "COc1ccc(-c2nn3ncccc3c2-c2ccnc(Nc3ccc(F)c(F)c3)n2)cc1", "system.name": "Ephrin type-B receptor 2 (Homo sapiens)", "inhibition [%]": 7.75}
{"substance.smiles": "NS(=O)(=O)c1ccc(N/N=C2\\C(=O)Nc3ccc(C(=O)NCc4ccncc4)cc32)cc1", "system.name": "Ephrin type-B receptor 2 (Homo sapiens)", "inhibition [%]": 4.03}
{"substance.smiles": "Fc1cccc(COc2ccc(Nc3ncncc3C#Cc3ccccc3)cc2Cl)c1", "system.name": "Ephrin type-B receptor 2 (Homo sapiens)", "inhibition [%]": 8.04}
{"substance.smiles": "O=C1Nc2ccccc2/C1=C1\\CCc2cc(O)ccc21", "system.name": "Ephrin type-B receptor 2 (Homo sapiens)", "inhibition [%]": 3.53}
{"substance.smiles": "CS(=O)(=O)Nc1ccc(-c2cc(-c3ccccc3)cc(C(N)=O)c2N)cc1", "system.name": "Ephrin type-B receptor 2 (Homo sapiens)", "inhibition [%]": 6.68}
{"substance.smiles": "FC(F)(F)CNc1nccc(-c2cnn3ncccc23)n1", "system.name": "Ephrin type-B receptor 2 (Homo sapiens)", "inhibition [%]": 5.3}
{"substance.smiles": "CN(C)CCNC(=O)Nc1ccc(N(C)c2ccnc(Nc3ccc(CS(C)(=O)=O)cc3)n2)cc1", "system.name": "Ephrin type-B receptor 2 (Homo sapiens)", "inhibition [%]": 10.6}

---

system.name: MAP kinase-activated protein kinase 2 (Homo sapiens);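 also: values are mean inhibition from the GSK PKIS screen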
cond: at 1 µM
quantity.measured: inhibition (%)

{"substance.smiles": "O=C(O[C@H]1CN[C@H](C#Cc2cc3ncnc(Nc4ccc5c(cnn5Cc5ccccc5)c4)c3s2)C1)N1CCOCC1", "recorded.number": -0.97}
{"substance.smiles": "CS(=O)(=O)CCNCc1ccc(-c2ccc3ncnc(Nc4ccc(OCc5ccccc5)cc4)c3c2)o1", "recorded.number": 0.72}
{"substance.smiles": "CCS(=O)(=O)c1ccc(OC)c(Nc2ncc(-c3cccc(C(C)=O)c3)o2)c1", "recorded.number": 1.71}
{"substance.smiles": "CS(=O)(=O)CCNCc1ccc(-c2ccc3ncnc(Nc4ccc(OCc5cccc(C(F)(F)F)c5)cc4)c3c2)o1", "recorded.number": 3.74}
{"substance.smiles": "c1cnn2ncc(-c3ccnc(NCCCN4CCOCC4)n3)c2c1", "recorded.number": 2.19}
